Would you mind telling me the reported bioavailability of each entry?
# test_summary: Mouse pharmacokinetic (PK) study
# Type: in vivo
# assay_setup: plasma, male BALB/c mice, PO 10 mg/kg, IV 2 mg/kg

Identify measured bioavailability corresponding to "O=C(O)c1ccc(-c2ccc3cc(O)ccc3c2)c(Cl)c1"
> 40%

Identify measured bioavailability corresponding to "O=C(O)c1ccc(-c2ccc3cc(O)ccc3c2)c(F)c1"
> 40%

---

# measured_target: GSNOR (Homo sapiens, UniProt P11766)
# Sequence (P11766 whole entry): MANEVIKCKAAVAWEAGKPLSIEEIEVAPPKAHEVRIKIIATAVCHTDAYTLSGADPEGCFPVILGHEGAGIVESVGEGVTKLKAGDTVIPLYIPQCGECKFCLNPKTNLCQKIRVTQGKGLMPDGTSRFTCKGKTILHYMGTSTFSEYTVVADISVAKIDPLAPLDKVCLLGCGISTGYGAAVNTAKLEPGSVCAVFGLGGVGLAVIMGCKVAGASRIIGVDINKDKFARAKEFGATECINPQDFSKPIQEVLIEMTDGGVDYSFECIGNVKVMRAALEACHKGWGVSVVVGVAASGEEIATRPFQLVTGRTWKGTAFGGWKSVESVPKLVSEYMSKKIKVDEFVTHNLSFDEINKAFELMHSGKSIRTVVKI
experimental_endpoint: IC50

State the measured IC50 (GSNOR (Homo sapiens, UniProt P11766)) of COc1cc(C(=O)O)ccc1-c1ccc2cc(O)ccc2c1 [Example 3]
< 0.1 µM

State the measured IC50 (GSNOR (Homo sapiens, UniProt P11766)) of O=C(O)c1ccc(-c2cc3ccc(O)cc3cc2Cl)cc1 [Example 22]
< 0.05 µM

State the measured IC50 (GSNOR (Homo sapiens, UniProt P11766)) of O=C(O)c1ccc(-c2cc3ccc(O)cc3cc2F)cc1 [Example 23]
< 0.05 µM

State the measured IC50 (GSNOR (Homo sapiens, UniProt P11766)) of O=C(O)c1ccc(-c2ccc3cc(O)ccc3c2)cc1 [Example 33, 4-(6-hydroxynaphthalen-2-yl)benzoic acid]
< 0.1 µM
